- measured on: T1, human CDH6 on cells (human, UniProt P55285 54-790)
- T1 sequence: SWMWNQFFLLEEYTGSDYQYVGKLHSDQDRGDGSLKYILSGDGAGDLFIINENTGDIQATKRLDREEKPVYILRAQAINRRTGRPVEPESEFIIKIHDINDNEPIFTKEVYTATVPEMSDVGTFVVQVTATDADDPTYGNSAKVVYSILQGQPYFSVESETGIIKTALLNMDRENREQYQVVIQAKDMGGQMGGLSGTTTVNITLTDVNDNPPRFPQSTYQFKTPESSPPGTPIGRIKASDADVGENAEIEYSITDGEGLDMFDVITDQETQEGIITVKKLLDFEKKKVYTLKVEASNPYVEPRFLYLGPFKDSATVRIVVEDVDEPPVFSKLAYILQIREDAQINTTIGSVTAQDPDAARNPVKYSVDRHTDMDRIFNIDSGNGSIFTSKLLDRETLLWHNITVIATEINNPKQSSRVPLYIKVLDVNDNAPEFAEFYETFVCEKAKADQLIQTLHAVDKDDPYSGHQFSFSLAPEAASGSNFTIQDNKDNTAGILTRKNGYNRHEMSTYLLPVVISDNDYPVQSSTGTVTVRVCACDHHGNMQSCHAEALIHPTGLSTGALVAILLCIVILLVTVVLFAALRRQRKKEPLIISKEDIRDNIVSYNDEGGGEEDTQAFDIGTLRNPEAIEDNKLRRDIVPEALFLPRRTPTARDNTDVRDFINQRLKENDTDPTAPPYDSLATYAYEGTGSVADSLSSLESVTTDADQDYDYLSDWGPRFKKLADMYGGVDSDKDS
- protocol details: cell-based or functional assay
observed property: percent inhibition at 1.22 nM ADC, JHOS4 cells

| binder | observed value |
| --- | --- |
| NOV0691-SMCC-DM1 (antibody, human IgG1, lambda, V domains shown, SMCC-DM1 on primary amines, sites not stated) VH: QVQLVESGGGLVKPGGSLRLSCAASGFTFSSYALNWVRQAPGKGLEWVGRIKSKTYGGSTDYAAPVKGRFTISRDDSKNTLYLQMNSLKTEDTAVYYCARDRGGYVGFDSWGQGTLVTVSS VL: DIALTQPASVSGSPGQSITISCTGTSSDVGRYNFVSWYQQHPGKAPKLMIYRVSNRPSGVSNRFSGSKSGNTASLTISGLQAEDEADYYCQSWTTYSNVVFGGGTKLTVLG | -14.4% |
| NOV0693-SMCC-DM1 (antibody, human IgG1, kappa, V domains shown, SMCC-DM1 on primary amines, sites not stated) VH: QVQLLESGGGLVQPGGSLRLSCAASGFTFSSYALHWVRQAPGKGLEWVSYIFYDSSSTYYADSVKGRFTISRDNSKNTLYLQMNSLRAEDTAVYYCARFLYSAYGVANWGQGTLVTVSS VL: DIQMTQSPSSLSASVGDRVTITCRASQSISFYLAWYQQKPGKAPKLLIYGASTLQSGVPSRFSGSGSGTDFTLTISSLQPEDFATYYCHQYSYWLRTFGQGTKVEIKR | 58.1% |
| NOV0709-SMCC-DM1 (antibody, human IgG1, lambda, V domains shown, SMCC-DM1 on primary amines, sites not stated) VH: QVQLLESGGGLVQPGGSLRLSCAASGFTFSTYYMHWVRQAPGKGLEWVSVISSDGSFTFYADSVKGRFTISRDNSKNTLYLQMNSLRAEDTAVYYCARHGYGAFDYWGQGTLVTVSS VL: DIALTQPASVSGSPGQSITISCTGTSSDVGSYNYVSWYQQHPGKAPKLMIYYVSNRPSGVSNRFSGSKSGNTASLTISGLQAEDEADYYCASYTHQGSWVFGGGTKLTVLG | 4.5% |
| NOV0712-SMCC-DM1 (antibody, human IgG1, kappa, V domains shown, SMCC-DM1 on primary amines, sites not stated) VH: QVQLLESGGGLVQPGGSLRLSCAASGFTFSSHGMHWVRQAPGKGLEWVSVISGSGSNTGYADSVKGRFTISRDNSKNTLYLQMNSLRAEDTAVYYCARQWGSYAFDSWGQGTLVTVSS VL: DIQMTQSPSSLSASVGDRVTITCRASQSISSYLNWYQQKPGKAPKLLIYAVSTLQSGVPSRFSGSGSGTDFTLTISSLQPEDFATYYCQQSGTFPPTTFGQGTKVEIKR | 67.6% |
| NOV0685-SMCC-DM1 (antibody, human IgG1, lambda, V domains shown, SMCC-DM1 on primary amines, sites not stated) VH: QVQLQQSGPGLVKPSQTLSLTCAISGDSVSGNSAAWNWIRQSPSRGLEWLGIIYYRSKWYNDYAVSVKSRITINPDTSKNQFSLQLNSVTPEDTAVYYCARSSYSGGFDYWGQGTLVTVSS VL: DIVLTQPPSVSGAPGQRVTISCSGSSSNIGSYYVSWYQQLPGTAPKLLIYYNTKRPSGVPDRFSGSKSGTSASLAITGLQAEDEADYYCQSWDKLGKGYVFGGGTKLTVLG | -14.7% |
